- experiment: Intestinal stability, human intestinal S9
- Format: in vitro ADME
- study_conditions: intestinal S9 fraction, pH 7.4, read-out: intrinsic clearance rate
Record form. Attribute: microsomal CLint at 1 µM. Fill in for each entry.
Reply with just the number (in µL/min/mg).

What value of measured microsomal CLint at 1 µM is listed for O=c1c(-c2ccc(O)cc2)coc2cc(OCOP(=O)(O)O)cc(O)c12 ? 51.7

What value of measured microsomal CLint at 1 µM is listed for O=c1c(-c2ccc(OCOP(=O)(O)O)cc2)coc2cc(O)cc(O)c12 ? 48.4

----------
Record form. Attribute: Percentage remaining at time: 2 hours. Fill in for each entry.
- experiment: Stability in simulated gastric fluid (SGF)
- Format: in vitro ADME
- study_conditions: SGF pH 1.2, 37° C., 2 μM, 2 hours
Reply with just the number (in %).

What value of measured Percentage remaining at time: 2 hours is listed for O=c1c(-c2ccc(O)cc2)coc2cc(OCOP(=O)(O)O)cc(O)c12 ? 104

What value of measured Percentage remaining at time: 2 hours is listed for O=c1c(-c2ccc(OCOP(=O)(O)O)cc2)coc2cc(O)cc(O)c12 ? 91.5

What value of measured Percentage remaining at time: 2 hours is listed for O=c1c(-c2ccc(OCOP(=O)(O)O)cc2)coc2cc(OCOP(=O)(O)O)cc(O)c12 ? 101

What value of measured Percentage remaining at time: 2 hours is listed for COc1ccc2[nH]c([S+]([O-])Cc3ncc(C)c(OC)c3C)nc2c1 (centres unmarked) [Omeprazole, omeprazole, reference compound] ? 23.1

What value of measured Percentage remaining at time: 2 hours is listed for CC(C)(CCCOP(=O)(O)O)C(=O)Oc1ccc(-c2coc3cc(O)cc(O)c3c2=O)cc1 ? 110

----------
- experiment: Stability in simulated gastric fluid (SGF)
- Type: in vitro ADME
- study_conditions: SGF pH 1.2, 37° C., 2 μM, 1 hour
Record form. Attribute: Percentage remaining at time: 1 hour. Fill in for each entry.
Reply with just the number (in %).

What value of measured Percentage remaining at time: 1 hour is listed for O=c1c(-c2ccc(O)cc2)coc2cc(OCOP(=O)(O)O)cc(O)c12 [Compound 2] ? 100

What value of measured Percentage remaining at time: 1 hour is listed for O=c1c(-c2ccc(OCOP(=O)(O)O)cc2)coc2cc(OCOP(=O)(O)O)cc(O)c12 [Compound 3] ? 95.1

What value of measured Percentage remaining at time: 1 hour is listed for O=c1c(-c2ccc(OCOP(=O)(O)O)cc2)coc2cc(O)cc(O)c12 [Compound 1] ? 94.4

What value of measured Percentage remaining at time: 1 hour is listed for CC(C)(CCCOP(=O)(O)O)C(=O)Oc1ccc(-c2coc3cc(O)cc(O)c3c2=O)cc1 [Compound 4] ? 104

What value of measured Percentage remaining at time: 1 hour is listed for COc1ccc2[nH]c([S+]([O-])Cc3ncc(C)c(OC)c3C)nc2c1 (centres unmarked) [Omeprazole, omeprazole, reference compound] ? 35.4

----------
- experiment: Approximate solubility in selected solvents by visual observation
- Assay type: physicochemical
- study_conditions: organic solvent or mixture, thermodynamic from solid; DCM, 25° C.; read-out: solubility in DCM
assay_readout: solubility

What value of measured solubility is listed for O=c1c(-c2ccc(O)cc2)coc2cc(OCOP(=O)(O)O)cc(O)c12 ? < 5000 µg/mL

----------
Record form. Attribute: logP. Fill in for each entry.
- experiment: log P
- Type: physicochemical

What value of measured logP is listed for O=c1c(-c2ccc(O)cc2)coc2cc(OCOP(=O)(O)O)cc(O)c12 [Compound 2] ? 1.59

What value of measured logP is listed for O=c1c(-c2ccc(O)cc2)coc2cc(O)cc(O)c12 [Genistein] ? 3.04

----------
- experiment: Pharmacokinetics in the rat, dosing in solution
- study_conditions: in vivo; solution, 25 mg/Kg nominal, fasted male SD rat; read-out: mean tmax of dosed compound in plasma (converted)
assay_readout: Tmax (min)
Reply with just the number (in min).

What value of measured Tmax is listed for O=c1c(-c2ccc(O)cc2)coc2cc(O)cc(O)c12 ? 10

----------
Record form. Attribute: half-life at 1 µM. Fill in for each entry.
- experiment: Intestinal stability, human intestinal S9
- Format: in vitro ADME
- study_conditions: intestinal S9 fraction, pH 7.4
Reply with just the number (in min).

What value of measured half-life at 1 µM is listed for O=c1c(-c2ccc(O)cc2)coc2cc(OCOP(=O)(O)O)cc(O)c12 ? 26.8

What value of measured half-life at 1 µM is listed for O=c1c(-c2ccc(OCOP(=O)(O)O)cc2)coc2cc(O)cc(O)c12 ? 28.7

----------
- experiment: Approximate solubility in selected solvents by visual observation
- Format: physicochemical
- study_conditions: 25 °C, organic solvent or mixture, thermodynamic from solid; THF, both 25 and 50° C.; read-out: solubility in THF
assay_readout: solubility

What value of measured solubility is listed for O=c1c(-c2ccc(O)cc2)coc2cc(OCOP(=O)(O)O)cc(O)c12 ? 125 to 250 mg/mL

----------
- experiment: Approximate solubility in selected solvents by visual observation
- Format: physicochemical
- study_conditions: 25 °C, organic solvent or mixture, thermodynamic from solid; methanol, both 25 and 50° C.; read-out: solubility in methanol
assay_readout: solubility

What value of measured solubility is listed for O=c1c(-c2ccc(O)cc2)coc2cc(OCOP(=O)(O)O)cc(O)c12 ? > 250 mg/mL

----------
- experiment: Pharmacokinetics in the rat, solid form (powder in mini-capsules)
- Format: in vivo
- study_conditions: male, SD, rat, in vivo, po; read-out: mean t1/2 of dosed compound in plasma (converted)
assay_readout: half-life

What value of measured half-life is listed for O=c1c(-c2ccc(O)cc2)coc2cc(O)cc(O)c12 [Genistein] ? ~2 h

----------
- experiment: Thermodynamic solubility in FaSSIF
- Format: physicochemical
- study_conditions: thermodynamic from solid, room temperature, 24 hours shaking, read-out: Solubility
assay_readout: solubility at 24 h (mM)
Reply with just the number (in mM).

What value of measured solubility at 24 h is listed for O=c1c(-c2ccc(OCOP(=O)(O)O)cc2)coc2cc(O)cc(O)c12 [Compound 1] ? 12.5

What value of measured solubility at 24 h is listed for O=c1c(-c2ccc(O)cc2)coc2cc(O)cc(O)c12 [Genistein] ? 0.027

What value of measured solubility at 24 h is listed for O=c1c(-c2ccc(OCOP(=O)(O)O)cc2)coc2cc(OCOP(=O)(O)O)cc(O)c12 [Compound 3] ? 10.2

What value of measured solubility at 24 h is listed for O=c1c(-c2ccc(O)cc2)coc2cc(OCOP(=O)(O)O)cc(O)c12 [Compound 2] ? 7.82

What value of measured solubility at 24 h is listed for CC(C)(CCCOP(=O)(O)O)C(=O)Oc1ccc(-c2coc3cc(O)cc(O)c3c2=O)cc1 [Compound 4] ? 0.612

What value of measured solubility at 24 h is listed for O=c1c(-c2ccc(O)cc2)coc2cc(OP(=O)(O)O)cc(O)c12 [Genistein-7-O-phosphate, genistein 7-O-phosphate, reference compound] ? 3.57

----------
Record form. Attribute: half-life at 1 µM. Fill in for each entry.
- experiment: Intestinal stability, rat intestinal S9
- Type: in vitro ADME
- study_conditions: intestinal S9 fraction, pH 7.4
Reply with just the number (in min).

What value of measured half-life at 1 µM is listed for O=c1c(-c2ccc(O)cc2)coc2cc(OCOP(=O)(O)O)cc(O)c12 ? 48.3

What value of measured half-life at 1 µM is listed for O=c1c(-c2ccc(OCOP(=O)(O)O)cc2)coc2cc(O)cc(O)c12 ? 2.6

----------
- experiment: Pharmacokinetics in the rat, dosing in solution
- study_conditions: male, SD, rat, in vivo, 25 mg/kg
Record form. Attribute: Cmax. Fill in for each entry.

What value of measured Cmax is listed for O=c1c(-c2ccc(OCOP(=O)(O)O)cc2)coc2cc(O)cc(O)c12 ? ~15 ng/mL

What value of measured Cmax is listed for O=c1c(-c2ccc(O)cc2)coc2cc(OCOP(=O)(O)O)cc(O)c12 ? ~30 ng/mL

----------
- experiment: Pharmacokinetics in the rat, solid form (powder in mini-capsules)
- Format: in vivo
- study_conditions: male, SD, rat, in vivo, po, 71 mg/kg, solid form, genistein 71 mg/Kg alone, considerable variability; read-out: mean AUC0-last of dosed compound in plasma
assay_readout: AUC(0-t)

What value of measured AUC(0-t) is listed for O=c1c(-c2ccc(O)cc2)coc2cc(O)cc(O)c12 ? ~500 ng·h/mL
